assay-info: qHTS Assay for Lipid Storage Modulators in Drosophila S3 Cells
protocol-conditions: BODIPY lipid droplet fluorescence, 18-24 h, cells fed with added oleic acid; series mostly up to 46.1 µM
Excerpt: NIH Molecular Libraries Probe Production Centers Network [MLPCN] NIH Chemical Genomics Center [NCGC] […] Triacsin C (Sigma-Aldrich T-4540), an inhibitor of long-chain fatty acyl CoA synthetase that blocks synthesis of triglycerides, was used as a positive control for lipid under-storage. […] Fluorescence was detected by excitation of the fluorophores with a 488-nm laser on an Acumen Explorer (TTP Lab Tech). […] Cells were detected using channel 3 (575-640 nm) with 5-um width and 100-um depth filters. […]
Among all 320,000 compounds or so, about 2,100 (0.66%) were called active. Not shown: some 53% with an inconclusive outcome. Calls come from the whole dose curve; as a rule, active = well fitted inhibition curve with a large enough effect in the signal ratio, with a control signal flat (not every such curve was filed as active); inconclusive = small, poorly fitted or top-dose-only effect, or effect the other way, or a change in a side signal; inactive = flat fitted curve, though single readings scatter; the % refers to the signal ratio. The sample as a whole holds a higher share of actives than the screen did.
Labels: Y (active), N (inactive)

compound=N#Cc1ccc(-c2ccc(OCC(=O)Nc3cccnc3)cc2)cc1 group_label=Y
compound=CCOC(=O)c1c(C)nc(-c2ccccc2)nc1N group_label=N
compound=CCOC(=O)N1CCN(C(=O)CCCn2c(=S)[nH]c3ccsc3c2=O)CC1 group_label=N
compound=Cc1cc(C)cc(NC(=O)c2sc3nc4n(c(=O)c3c2C)CCC4)c1 group_label=Y
compound=Oc1[nH]c2ccccc2c1N=Nc1ncnc2c1oc1ccccc12 group_label=N
compound=CCN(CC(=O)Nc1ccccc1C(F)(F)F)C(=O)c1ccc(=O)n(Cc2ccccc2)n1 group_label=N
compound=CN(C)CCOc1ccc(C(C)(C)c2ccccc2)cc1 group_label=N
compound=COC(=O)NNC(=O)c1ccccc1C group_label=Y
compound="O=C(NCC1CCCO1)C(=O)N/N=C\\c1ccc2c(c1)OCO2 (centres undefined)" group_label=N
compound=COC(=O)NNC(=O)c1ccccc1OC group_label=N
compound=COc1ccc(/C=N/N=C2/NC(=O)C(c3ccccc3)(c3ccccc3)S2)cc1 group_label=Y
compound="CC1=C(C(=O)Nc2ccc(C)cc2)C(c2ccc(N(C)C)cc2)NC(=O)N1 (centres undefined)" group_label=N
compound=CCCCCCC(=O)NN1CCN(C)CC1 group_label=Y
compound="COc1ccc(CC2S/C(=N/N=C/c3ccc(O)cc3)NC2=O)cc1 (centres undefined)" group_label=N
compound="CCN(CC)c1ccc(C2NC(=O)NC(C)=C2C(=O)Nc2ccccc2)cc1 (centres undefined)" group_label=Y
compound=CCOC(=O)C1CCN(C(=O)CCc2c(C)nc3c(-c4ccc(F)cc4)c(C)nn3c2C)CC1 group_label=N
compound=CCOC(=O)N1CCN(c2c(N3CCN(c4ccc(OC)cc4)CC3)c(=O)c2=O)CC1 group_label=N
compound="CN=C1SC(CC(=O)Nc2ccc(F)cc2F)C(=O)N1/N=C(\\C)c1cccc(OCC(=O)O)c1 (centres undefined)" group_label=N
compound="CCOC(=O)C(NC(=O)N1CCCCC1)(c1ccccc1)C(F)(F)F (centres undefined)" group_label=N

----------
assay-info: qHTS Assay for Lipid Storage Modulators in Drosophila S3 Cells
protocol-conditions: BODIPY lipid droplet fluorescence, 18-24 h, cells fed with added oleic acid; series mostly up to 46.1 µM
About 2,100 (0.66%) of roughly 320,000 compounds were called active. Another 53% or so got no clear call; they are omitted. The call rests on the fitted dose curve; in most records, active means well fitted inhibition curve with a large enough effect in the signal ratio, with a control signal flat (not every such curve was filed as active); inconclusive means small, poorly fitted or top-dose-only effect, or effect the other way, or a change in a side signal; inactive means flat fitted curve, though single readings scatter; the % refers to the signal ratio. Shown is part of a subset that was picked to be rich in actives.
Outcome codes: Y = active, N = inactive

compound="COc1ccc(-c2nc(C(=O)NCC3CCCO3)cc3c2[nH]c2ccccc23)cc1 (stereo not given)" group_label=N
compound="O=C(CSc1nc2ccccc2[nH]1)NCC1CCCO1 (stereo not given)" group_label=N
compound=COc1ccc(/C=C/C(=O)N2CCN(c3ccccc3)CC2)cc1S(=O)(=O)N1CCOCC1 group_label=N
compound="CCOc1ccc(-n2cc(-c3ccccc3)c3c(SC(C)C(=O)OC)ncnc32)cc1 (stereo not given)" group_label=N
compound=COc1ccc(C(=O)N2CCN(c3ccccc3)CC2)cc1S(=O)(=O)N1CCOCC1 group_label=Y
compound=CC(=O)N1CCN(S(=O)(=O)c2cccc(C(=O)OCN3C(=O)c4ccccc4C3=O)c2)CC1 group_label=N
compound=CCOC(=O)c1ccc(NS(=O)(=O)c2c(C)[nH]c(C)c2C(=O)N2CCCCC2)cc1 group_label=N
compound=Cc1ccccc1OCC(=O)Nc1c2c(nn1C(C)(C)C)CS(=O)(=O)C2 group_label=N
compound="CC(C)Nc1ccc(C(CC(N)=O)NC(=O)Cc2cccc3ccccc23)cc1[N+](=O)[O-] (stereo not given)" group_label=N
compound=C=CCNC(=O)/C(=C\c1ccc([N+](=O)[O-])cc1)NC(C)=O group_label=N
compound="CC(C)CCN(C(=S)Nc1cccc(C(F)(F)F)c1)C(C)c1ccccn1 (stereo not given)" group_label=Y
compound=O=C1OCC(CO)(CO)N=C1NNc1ccccc1Cl group_label=N
compound=CCc1ccc(C(=O)/C=C/c2ccc([N+](=O)[O-])o2)cc1 group_label=Y
compound=Cc1ccccc1NC(=O)C(=O)Nc1ccccc1C group_label=N
compound="COc1ccc(Cl)cc1NC(=O)C1CCCN(S(=O)(=O)c2cccc3nonc23)C1 (stereo not given)" group_label=N
compound=Cc1ccc(C(=O)N2CCN(c3ccccc3)CC2)cc1S(=O)(=O)N1CCOCC1 group_label=N
compound=Cc1c(N)cccc1-c1nc2ccccc2[nH]1 group_label=N
compound=CN1CCN(C(=O)/C=C/c2ccc([N+](=O)[O-])cc2)CC1 group_label=N
compound=Cc1ccccc1CNS(=O)(=O)c1c(C)[nH]c(C)c1C(=O)N1CCCCC1 group_label=N
compound="CC(C)N(C(=S)Nc1cccc(C(F)(F)F)c1)C(C)c1ccccn1 (stereo not given)" group_label=N

----------
Quick list: cell number change per entry.
assay-info: qHTS Assay for Lipid Storage Modulators in Drosophila S3 Cells;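 for cell number change: cells counted by Cell Tracker Red CMTPX staining in the red channel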
protocol-conditions: BODIPY lipid droplet fluorescence, 18-24 h, cells fed with added oleic acid; measured here: cell count max response
In all, about 320,000 compounds went through this assay and about 2,100 (0.66%) were called active. Roughly 53% stayed inconclusive and do not appear here. Many of the other results were omitted from the sample, so actives are more common in it than they were.
endpoint: cell number change (%)

compound=N#CC(C(=O)O)=C1CCCC1 endpoint="cell number change" measure_unit=% value=-10.5
compound="CC1Sc2ccc(S(=O)(=O)N3CCC(C(=O)Nc4ccc(Cl)cc4)CC3)cc2NC1=O (stereo not given)" endpoint="cell number change" measure_unit=% value=7.08
compound="COC(=O)C(C)Sc1nnc(SC(C)C(=O)OC)s1 (stereo not given)" endpoint="cell number change" measure_unit=% value=26.4
compound=COc1ccc(C(=O)/C=C/Nc2ccc(S(=O)(=O)Nc3cc(OC)nc(OC)n3)cc2)c(OC)c1 endpoint="cell number change" measure_unit=% value=34.2
compound=Cc1cc(C)n(-c2nnc(C)n2/N=C/c2ccccc2O)n1 endpoint="cell number change" measure_unit=% value=-5.58

----------
assay-info: qHTS Assay for Lipid Storage Modulators in Drosophila S3 Cells;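 for cell number change: cells counted by Cell Tracker Red CMTPX staining in the red channel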
protocol-conditions: BODIPY lipid droplet fluorescence, 18-24 h, cells fed with added oleic acid; measured here: cell count max response
The campaign covered roughly 320,000 compounds. About 2,100 (0.66%) were called active. Roughly 53% stayed inconclusive and do not appear here. The list comes from a sample in which actives are over-represented; it also holds close analogues and randomly drawn compounds.
This section presents molecules with their documented cell number change values.
endpoint: cell number change (%)

molecule="COc1ccc(NC(=O)CC2C(=O)N(C)C(=S)N2Cc2ccc3c(c2)OCO3)cc1 (stereo unspecified)" value=20
molecule=COc1cc(CN2CCc3ccc(NC(=O)CCc4ccccc4OC)cc3C2)ccc1O value=-9.87
molecule="CCC(C)c1ccc(NC(=O)Nc2cnccn2)cc1 (stereo unspecified)" value=13.7
molecule="CC(C)(C)C1CCC2(CC1)SCC(=O)N2c1ccccc1 (stereo unspecified)" value=-2.85
molecule=CCN(C(=O)CN1CCCCC1)c1c(N)n(Cc2ccccc2)c(=O)[nH]c1=O value=1.16
molecule=Cc1nn(C)c(C)c1S(=O)(=O)N(CC(=O)NCCN1CCOCC1)c1ccc(C(C)C)cc1 value=12.7
molecule=Cc1nc2ccccc2c(N)c1C(=O)/C=C/c1ccccc1 value=-20.1
molecule=CCN(C(=O)COC(=O)CCOc1ccccc1)c1c(N)n(Cc2ccccc2)c(=O)[nH]c1=O value=3.61
molecule=CCCN(C(=O)c1c(-c2ccccc2)noc1C)c1c(N)n(Cc2ccccc2)c(=O)[nH]c1=O value=9.83
molecule=O=C(CSc1ccc(Cl)cc1)NCc1ccncc1 value=8.1
molecule="COc1cccc(N2C(=NC(=O)CCc3ccccc3)SC3CS(=O)(=O)CC32)c1 (stereo unspecified)" value=-7.96
molecule=COC(=O)CCn1[nH]c(=O)c2ccccc2c1=O value=-3.6
molecule=CCn1c(=O)c2sccc2n2c(CCCC(=O)N3CCN(c4ccccn4)CC3)nnc12 value=-5.66
molecule=CCN(C(=O)CN1CCN(c2ccccc2)CC1)c1c(N)n(Cc2ccccc2)c(=O)[nH]c1=O value=-21.7
molecule=O=C1CN(S(=O)(=O)c2ccccc2)CCN1S(=O)(=O)c1ccccc1 value=-1.6
molecule=COc1ccc(OC)c(NC(=O)NCCc2cccc(Cl)c2)c1 value=4.18
molecule=CCCCNC(=O)C1CCN(Cc2ccc(OCc3ccccc3)cc2)CC1 value=-13
molecule=COc1ccccc1CNC(=O)CCn1c(=O)[nH]c2ccsc2c1=O value=-12.6
molecule=Cc1cc(=O)oc2cc(Oc3ccc([N+](=O)[O-])cc3[N+](=O)[O-])ccc12 value=-13.4
molecule=CCCCCCCCOC(=O)CCn1[nH]c(=O)c2ccccc2c1=O value=-16.3
molecule=CCN(C(=O)CN1CCN(c2cccc(Cl)c2)CC1)c1c(N)n(Cc2ccccc2)c(=O)[nH]c1=O value=-10
molecule=CCCN(C(=O)COC(=O)CCOc1ccccc1)c1c(N)n(Cc2ccccc2)c(=O)[nH]c1=O value=-10.8
molecule=COc1ccc(OC)c(NC(=O)CN2C(=O)C(=O)N(Cc3ccccc3)C2=O)c1 value=-12.4
molecule="COc1cccc(N2C(=NC(=O)CCC3CCCC3)SC3CS(=O)(=O)CC32)c1 (stereo unspecified)" value=4.89
molecule=Cc1ccc(S(=O)(=O)N2CCc3c2cc([N+](=O)[O-])cc3[N+](=O)[O-])cc1 value=25.6
molecule=Cc1cccc([C@@H]2[C@@H]3C(=O)N(Cc4ccccc4)C(=O)[C@@H]3[C@]3(C)C(=O)N(c4ccc(Br)cc4)C(=O)N23)c1 value=17.2

Data origin, for the record: PubChem BioAssay AID2685
